- tested system: T1, Sul7s Y56A (Sulfolobus islandicus Rey15A, UniProt F0NBY5 1-59, Y56A)
- T1 sequence: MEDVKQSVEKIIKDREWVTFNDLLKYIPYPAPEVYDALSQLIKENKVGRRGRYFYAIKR
- assay name: BLI; BLI: 50 mM Tris-Cl pH 7.5, 100 mM NaCl, 1 mM EDTA, 0.02% Tween-20, 30 C; NMR: 20 mM potassium phosphate pH 7.0, 30 mM NaCl, 0.02% NaN3, 298 K
- experimental parameters: protein: recombinant; tags: untagged; label: 5'-biotin
measured metric: Kd (µM)
The figure you give is taken to be in µM; do not add the unit.

Query: Need Kd, item TTTCTACCCTTTGGTGCTAATGCCCATACT (ssDNA) [S30 (S30-F)]
Result: 15.6
